- Subject Of Test: T1, human TREM2 (human, UniProt Q9NZC2 19-174, limits assumed)
- T1 construct: also called triggering receptor expressed on myeloid cells 2
- T1 sequence: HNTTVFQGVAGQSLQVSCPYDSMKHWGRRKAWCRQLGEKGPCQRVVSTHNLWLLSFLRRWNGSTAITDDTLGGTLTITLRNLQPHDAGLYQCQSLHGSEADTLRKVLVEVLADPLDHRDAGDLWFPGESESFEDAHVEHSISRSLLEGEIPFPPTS
- Protocol Text: 2nd screen, 2 nM
Reported Metric: Binding Signal

In the examples that follow, each entry is paired with its recorded Binding Signal.
Binder: V29 (antibody, V domains shown, also called 6E7 variant V29) VH: EVQLVQSGAEVKKPGESLKISCKGSGYSFKSYWIAWVRQMPGKGLEWMGIIYPGDSDTRYSPSFQGQVTISADKSISTAYLQWSSLKASDTAMYFCARQRTFYYDSSDYFDYWGQGTLVTVSS VL: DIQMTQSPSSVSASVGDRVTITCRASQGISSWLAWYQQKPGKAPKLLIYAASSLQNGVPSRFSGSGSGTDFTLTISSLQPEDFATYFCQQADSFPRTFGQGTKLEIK
Binding Signal: 0.84 fold over 6E7 parental antibody
//
Binder: V51 (antibody, V domains shown, also called 6E7 variant V51) VH: EVQLVQSGAEVKKPGESLKISCKGSGYSFTSYWIAWVRQMPGKGLEWMGIIYPGDSDVRYSPSFQGQVTISADKSISTAYLQWSSLKASDTAMYFCARGRTFYYDSSDYFDNWGQGTLVTVSS VL: DIQMTQSPSSVSASVGDRVTITCRASQGISSWLAWYQQKPGKAPKLLIYAASSRQNGVPSRFSGSGSGTDFTLTISSLQPEDFATYFCQQADSFPRTFGQGTKLEIK
Binding Signal: 1.83 fold over 6E7 parental antibody
//
Binder: V5 (antibody, V domains shown, also called 6E7 variant V5) VH: EVQLVQSGAEVKKPGESLKISCKGSGYSFTSYWIAWVRQMPGKGLEWMGTIYPGDSDTRYSPSFQGQVTISADKSISTAYLQWSSLKASDTAMYFCARQRTFYYDSSDYFDYWGQGTLVTVSS VL: DIQMTQSPSSVSASVGDRVTITCRASQGISSWLAWYQQKPGKAPKLLIYAASSLQNGVPSRFSGSGSGTDFTLTISSLQPEDFATYFCQQADSHPRTFGQGTKLEIK
Binding Signal: 1.25 fold over 6E7 parental antibody
//
Binder: V75 (antibody, V domains shown, also called 6E7 variant V75) VH: EVQLVQSGAEVKKPGESLKISCKGSGYSFTSYWIAWVRQMPGKGLEWMGIIYPGDSDTRYSPSFQGQVTISADKSISTAYLQWSSLKASDTAMYFCARGRTFYYDSSDYFDYWGQGTLVTVSS VL: DIQMTQSPSSVSASVGDRVTITCRASQGISSWLAWYQQKPGKAPKLLIYAASSLQAGVPSRFSGSGSGTDFTLTISSLQPEDFATYFCQQADSYPRTFGQGTKLEIK
Binding Signal: 3.74 fold over 6E7 parental antibody

Would you kindly look at the next entry?
-- ask Returns the measured Binding Signal for the input binder. Input: V4 (antibody, V domains shown, also called 6E7 variant V4) VH: EVQLVQSGAEVKKPGESLKISCKGSGYSFGSYWIAWVRQMPGKGLEWMGIIYPGDSDTRVSPSFQGQVTISADKSISTAYLQWSSLKASDTAMYFCARSRTFYYDSSDYFDYWGQGTLVTVSS VL: DIQMTQSPSSVSASVGDRVTITCRASQGISSWLAWYQQKPGKAPKLLIYAASRLQNGVPSRFSGSGSGTDFTLTISSLQPEDFATYFCQQADSYPRTFGQGTKLEIK
-- reply 5.88 fold over 6E7 parental antibody

Attribution: patent US20250326839A1
